system: CCRIS mutagenicity, Ames/micronucleus/aberration tests; experiment: CCRIS mutagenicity studies; conditions: Test System: E.COLI; Strain/Indicator: WP2UVRA; Metabolic Activation: RAT LIVER S-9, PHENOBARBITAL AND BETA-NAPHTHOFLAVONE; Method: PREINCUBATION
The source made the active and inactive calls. No rule for the calls is given here.
ASSAY METRIC: mutagenic call

Solved entries:
>  <RECORD SMILES>
O=C=Nc1cccc2c(N=C=O)cccc12

>  <EXPERIMENTAL SYSTEM>
CCRIS mutagenicity, Ames/micronucleus/aberration tests

>  <mutagenic call>
inactive; negative

$$$$
>  <RECORD SMILES>
O=C1c2ccccc2C(=O)c2ccccc21

>  <EXPERIMENTAL SYSTEM>
CCRIS mutagenicity, Ames/micronucleus/aberration tests

>  <mutagenic call>
inactive; negative

$$$$
>  <RECORD SMILES>
CC(=O)Nc1ccc(S(=O)(=O)Cl)cc1

>  <EXPERIMENTAL SYSTEM>
CCRIS mutagenicity, Ames/micronucleus/aberration tests

>  <mutagenic call>
inactive; negative

$$$$
>  <RECORD SMILES>
Nc1cc(S(=O)(=O)O)cc2cc(S(=O)(=O)O)cc(O)c12

>  <EXPERIMENTAL SYSTEM>
CCRIS mutagenicity, Ames/micronucleus/aberration tests

>  <mutagenic call>
inactive; negative

$$$$
>  <RECORD SMILES>
c1ccc2cc(Nc3ccc(Nc4ccc5ccccc5c4)cc3)ccc2c1

>  <EXPERIMENTAL SYSTEM>
CCRIS mutagenicity, Ames/micronucleus/aberration tests

>  <mutagenic call>
inactive; negative

$$$$
>  <RECORD SMILES>
Cc1ccccc1Br

>  <EXPERIMENTAL SYSTEM>
CCRIS mutagenicity, Ames/micronucleus/aberration tests

>  <mutagenic call>
inactive; negative

$$$$

# evaluate next
Input: Item under review: N#Cc1ccccc1C#N . Reported mutagenic call?
Output: inactive; negative
